- Assay Summary: Inhibition of recombinant ovine lung calpain-2 protease using BODIPY-FL casein as substrate measured at 30 secs time interval for 30 mins by fluorescence-based assay
- Parameters: species or system Ovis aries
Residues, ends and D or L forms follow the SMILES beside them. *: point of attachment. Cbz = O=C(OCc1ccccc1)*
# IC50 annotations

{"Compound": "CC(C)C[C@@H](C=O)NC(=O)[C@H](CC(C)C)NC(=O)[C@H](CC(C)C)NC(=O)OCc1ccccc1 [MG-132] (Cbz-Leu-Leu-Leu-aldehyde)", "IC50 [nM]": 311}
{"Compound": "CC(C)C[C@@H](C=O)NC(=O)[C@H](CC(C)C)NC(=O)[C@H](Cc1ccccc1)NC(=O)OCc1ccccc1 (Cbz-Phe-Leu-Leu-aldehyde)", "IC50 [nM]": 11}
{"Compound": "CC(C)C[C@@H](C=O)NC(=O)[C@H](CO)NC(=O)[C@H](CC(C)C)NC(=O)OCc1ccccc1 (Cbz-Leu-Ser-Leu-aldehyde)", "IC50 [nM]": 99}
{"Compound": "C#CCOc1ccc(C[C@@H](C=O)NC(=O)[C@H](CC(C)C)NC(=O)[C@H](Cc2ccccc2)NC(=O)OCc2ccccc2)cc1", "IC50 [nM]": 13}
{"Compound": "CC(C)C[C@H](NC(=O)[C@H](Cc1ccccc1)NC(=O)OCc1ccccc1)C(=O)N[C@H](C=O)Cc1ccccc1 (Cbz-Phe-Leu-Phe-aldehyde)", "IC50 [nM]": 6}
{"Compound": "CC(C)C[C@H](NC(=O)OCc1ccccc1)C(=O)N[C@@H](CC(C)C)C(=O)N[C@@H](CC(C)C)C(=O)[C@@]1(C)CO1", "IC50 [nM]": 4400}

---

- Assay Summary: Inhibition of chymotrypsin like activity of rabbit 20S proteasome beta 5 subunit using Suc-LLVY-AMC as substrate preincubated for 15 mins followed by substrate addition and measured after 2 hrs by fluorescence assay
- Design: species or system Oryctolagus cuniculus

{"Compound Structure": "C#CCOc1ccc(C[C@@H](C=O)NC(=O)[C@@H](NC(=O)[C@H](CCCCN=[N+]=[N-])NC(=O)OCc2ccccc2)[C@@H](C)CC)cc1", "IC50, nM": 20}
{"Compound Structure": "C#CCOc1ccc(C[C@@H](C=O)NC(=O)[C@H](CC(C)C)NC(=O)[C@H](CCCCN=[N+]=[N-])NC(=O)OCc2ccccc2)cc1", "IC50, nM": 150}

---

- Tgt: Proteasome Macropain subunit MB1 (Homo sapiens)
- Sequence (P28074 whole entry): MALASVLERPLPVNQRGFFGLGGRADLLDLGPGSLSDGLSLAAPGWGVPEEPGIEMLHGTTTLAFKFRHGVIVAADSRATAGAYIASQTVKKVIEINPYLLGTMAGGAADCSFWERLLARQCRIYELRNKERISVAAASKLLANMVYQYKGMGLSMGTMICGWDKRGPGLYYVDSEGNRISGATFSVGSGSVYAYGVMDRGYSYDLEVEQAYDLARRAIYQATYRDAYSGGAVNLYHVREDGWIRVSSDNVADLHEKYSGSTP
- Assay Summary: Inhibition of chymotrypsin like activity of 26S proteasome beta 5 subunit (unknown origin) by fluorescence assay
pIC50: −log10 of the molar value. Residues, ends and D or L forms follow the SMILES beside them. *: point of attachment. Cbz = O=C(OCc1ccccc1)*
# pIC50 annotations
Measurement Label: pIC50

{"Compound": "C#CCOc1ccc(C[C@@H](C=O)NC(=O)[C@H](CC(C)C)NC(=O)[C@H](Cc2ccccc2)NC(=O)OCc2ccccc2)cc1", "Result": 6.72}
{"Compound": "CC(C)C[C@@H](C=O)NC(=O)[C@H](CC(C)C)NC(=O)[C@H](Cc1ccccc1)NC(=O)OCc1ccccc1 (Cbz-Phe-Leu-Leu-aldehyde)", "Result": 6.86}
{"Compound": "CC(C)C[C@H](NC(=O)[C@H](Cc1ccccc1)NC(=O)OCc1ccccc1)C(=O)N[C@H](C=O)Cc1ccccc1 (Cbz-Phe-Leu-Phe-aldehyde)", "Result": 6.29}
{"Compound": "CC(C)C[C@@H](C=O)NC(=O)[C@H](CO)NC(=O)[C@H](CC(C)C)NC(=O)OCc1ccccc1 (Cbz-Leu-Ser-Leu-aldehyde)", "Result": 6.57}
{"Compound": "CC(C)C[C@H](NC(=O)OCc1ccccc1)C(=O)N[C@@H](CC(C)C)C(=O)N[C@@H](CC(C)C)C(=O)[C@@]1(C)CO1", "Result": 6.66}

---

- Tgt: Calpain-2 catalytic subunit (Sus scrofa, UniProt P43367)
- Sequence (P43367 whole entry): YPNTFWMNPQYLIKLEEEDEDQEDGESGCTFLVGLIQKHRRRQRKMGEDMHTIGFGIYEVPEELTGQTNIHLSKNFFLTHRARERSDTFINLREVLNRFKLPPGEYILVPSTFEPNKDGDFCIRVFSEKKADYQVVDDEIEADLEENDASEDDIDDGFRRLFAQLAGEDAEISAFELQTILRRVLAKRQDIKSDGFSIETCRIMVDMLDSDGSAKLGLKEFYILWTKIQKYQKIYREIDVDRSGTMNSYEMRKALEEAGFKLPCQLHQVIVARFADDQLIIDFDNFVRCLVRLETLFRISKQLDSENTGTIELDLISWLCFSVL
- Assay Summary: Inhibition of recombinant porcine calpain 2 protease using BODIPY-FL casein as substrate measured at 30 secs time interval for 30 mins by fluorescence-based assay
Residues, ends and D or L forms follow the SMILES beside them. *: point of attachment. Cbz = O=C(OCc1ccccc1)*
Sorting guide: entries reporting IC50 beneath 30 nM go in the fulfilled pile, the rest go in the not fulfilled pile.

{"Compound": "CC(C)C[C@@H](C=O)NC(=O)[C@H](CC(C)C)NC(=O)[C@H](Cc1ccccc1)NC(=O)OCc1ccccc1 (Cbz-Phe-Leu-Leu-aldehyde)", "Label": "fulfilled"}
{"Compound": "C#CCOc1ccc(C[C@@H](C=O)NC(=O)[C@H](CC(C)C)NC(=O)[C@H](Cc2ccccc2)NC(=O)OCc2ccccc2)cc1", "Label": "not fulfilled"}
{"Compound": "CC(C)C[C@@H](C=O)NC(=O)[C@H](CO)NC(=O)[C@H](CC(C)C)NC(=O)OCc1ccccc1 (Cbz-Leu-Ser-Leu-aldehyde)", "Label": "not fulfilled"}
{"Compound": "CC(C)C[C@H](NC(=O)OCc1ccccc1)C(=O)N[C@@H](CC(C)C)C(=O)N[C@@H](CC(C)C)C(=O)[C@@]1(C)CO1", "Label": "not fulfilled"}
{"Compound": "CC(C)C[C@H](NC(=O)[C@H](Cc1ccccc1)NC(=O)OCc1ccccc1)C(=O)N[C@H](C=O)Cc1ccccc1 (Cbz-Phe-Leu-Phe-aldehyde)", "Label": "fulfilled"}
